Protocol description: endothelial E-selectin expression blockers – imaging, HUVEC, immunofluorescence, MLSMR starter and 10KST1 sets, primary screen (AID 487);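 also: signal is fraction of cell area covered by stained E-selectin grains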
Condition label: HUVEC TNFalpha-induced E-selectin immunofluorescence imaging, at 2 µM
Calls of active or inactive are those of the source.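 The calls were made as follows: active = visually confirmed hit in the image check and inhibition above 20%; inconclusive = visually confirmed hit but inhibition not above 20%; inactive = no visual hit in the image check.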
Lab note: assign the record to one of active, inactive

Below, 3 compounds whose answers are already recorded.
CCOC(=O)CSc1nnc(CNC(=O)c2cccs2)n1-c1cc(OC)ccc1OC = inactive
CCOC(=O)c1[nH]nc(-c2c(O)cc(C)cc2O)c1-c1csc(C)n1 = inactive
COc1cccc(C(=O)CSc2nnc(COc3cccc4cccnc34)o2)c1 = inactive

Turning now to a further compound:
**Query** Short answer needed: outcome of this test for CCSc1nc2c(c(=O)n1CC)SC(C)C2 (stereo not drawn) ?
**Result** inactive

---

Protocol description: blockers of RIG-like receptor reporter activation – cell-based, Sendai virus stimulus, luciferase, 10K MLSCN set, TLR/RLR signaling modifier project, primary screen (AID 602276);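 also: firefly luciferase from ISG56 promoter only with Renilla not read in this screen; 0% = Sendai virus plus DMSO and 100% = medium plus DMSO without virus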
Condition label: HEK293 RL24 IRF3 luciferase reporter, at 10 µM, stronger effect = higher value
compounds and their reported inhibition
Express it in %; write the number only.

Example results:
CCN1CCN(c2c(Cl)cccc2NC(=O)c2ccco2)CC1 = 1.94
CSc1nnc2c3ccccc3n(Cc3ccccc3)c2n1 = 19.7
Cn1c(NCc2cccc(Br)c2)nc2ccccc21 = 8.28
CCN1CCN(Cc2ccccc2NC(=O)Nc2ccc(C)cc2)CC1 = -27.3

**Query** So what does the record say about inhibition for `CCc1nccn1S(=O)(=O)c1ccc2ccc(C)cc2c1` ?
**Result** -9.41

**Query** Try `C1CCC2=NCCCN2CC1` next.
**Result** 10.9

---

Measured on: Voltage-gated potassium channel subunit beta-2 (Rattus norvegicus) (UniProt P62483)
Sequence (P62483 whole entry, looked up): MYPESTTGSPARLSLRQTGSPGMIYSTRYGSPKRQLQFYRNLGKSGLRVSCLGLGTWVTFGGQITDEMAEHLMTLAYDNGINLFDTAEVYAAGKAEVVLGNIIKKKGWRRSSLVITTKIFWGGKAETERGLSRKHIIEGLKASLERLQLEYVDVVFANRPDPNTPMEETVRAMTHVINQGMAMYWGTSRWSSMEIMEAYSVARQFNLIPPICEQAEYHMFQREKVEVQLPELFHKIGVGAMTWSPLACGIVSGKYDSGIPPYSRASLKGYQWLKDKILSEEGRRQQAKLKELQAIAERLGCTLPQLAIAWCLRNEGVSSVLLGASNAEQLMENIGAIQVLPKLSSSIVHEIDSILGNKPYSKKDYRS
Protocol description: enhancers of rat Kvbeta2 NADPH turnover – biochemical, NADPH fluorescence, primary screen (AID 623);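 also: fluorescence intensity change per second fitted from 20 to 320 s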
Condition label: Recombinant KvBeta, NADPH fluorescence decrease slope, 10 min; at 10 µM; stronger effect = lower value
compounds and their reported NADPH fluorescence slope
Please reply with the number alone, leaving off any unit.

CCCCc1ccc(NC(=O)c2c(C)noc2C)cc1 = -0.000106

**Query** So what does the record say about NADPH fluorescence slope for CCN1C(=O)NC(c2cc(Br)ccc2OC)C(C(=O)OC)=C1C (stereo unspecified) ?
**Result** 3.4e-05

**Query** Try CC1CN(c2nc3ccccn3c(=O)c2/C=C(\C#N)S(=O)(=O)c2ccccc2)CC(C)O1 (stereo unspecified) next.
**Result** -0.000138

**Query** Try `CCN1C(=O)/C(=C/N2CCc3ccccc32)SC1=S` next.
**Result** -2.8e-05

**Query** Try `COc1cccc2cc(C(=O)N3CCc4ccccc43)c(=O)oc12` next.
**Result** -5.5e-06

**Query** Try `COc1ccccc1CNC(=O)CCn1c(=O)[nH]c2ccsc2c1=O` next.
**Result** -3e-05

---

Protocol description: reduction of polyQ htt aggregates in cells – imaging, exon1htt(103Q)mCFP cells, high-content imaging, primary screen (AID 483);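 also: compound exposure lasted 3 days before fixation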
Condition label: exon1htt(103Q)mCFP cell line, aggregate imaging, at 2 µM; stronger effect = higher value
Recorded endpoint: inhibition of aggregation (%)
Express it in %; write the number only.

O=c1c2c3c(sc2nc2sc(C4CC4)nn12)CCCC3 = 19.5
O=C(CCN1CCN(c2ccc(F)cc2)CC1)Nc1ccccc1F = 34.9
O=C1CNCc2[nH]c3ccccc3c2N1c1ccccc1 = 9.4

**Query** So what does the record say about inhibition of aggregation for `CCN(CC)S(=O)(=O)c1ccc(C(=O)Oc2ccc3c(c2)OCO3)cc1` ?
**Result** -5

**Query** Try `CCOC(=O)CCC(=O)c1c(C)oc2ccc(OC)cc12` next.
**Result** 4.8

**Query** Try `COC(=O)CN(c1ccc(F)cc1)S(=O)(=O)c1ccccc1` next.
**Result** -0.2

---

compounds and their reported cell count
Protocol description: inhibitors of TNFa-induced NFkB p65 translocation, primary screen, imaging, HUVEC, MLSMR starter and 10KST1 sets (AID 438);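 also: compound added about 3h40 before a 20 min TNFalpha stimulation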
Condition label: HUVEC TNFa-induced p65 nuclear translocation; measured here: nuclei count (cytotoxicity indicator), at 2.08 µM
Please reply with the number alone, leaving off any unit.

**Query** So what does the record say about cell count for `COCCNC(=O)Cn1nc(C(F)(F)F)c(Br)c1C` ?
**Result** 376

**Query** Try `CSc1nc(N2CCOCC2)c2c(c1C#N)CCCCC2` next.
**Result** 690

**Query** Try CSC1CCCCC1(O)CSc1nc2c(cc1C#N)CCCC2 (configuration not stated) next.
**Result** 306

**Query** Try `C=CCOc1nc(N2CCCC2)nc(N2CCCC2)n1` next.
**Result** 579

**Query** Try Cn1c2c(c(=O)[nH]c1=O)C(NC(=O)c1ccco1)(C(F)(F)F)C(=O)N2 (configuration not stated) next.
**Result** 618

**Query** Try `c1ccc(CNC2=NCCC2)nc1` next.
**Result** 414

**Query** Try `CCCn1c(N2CCN(CC(=O)NCc3cccs3)CC2)nc2ccccc21` next.
**Result** 451

**Query** Try `Cc1noc(C)c1S(=O)(=O)NCCN1CCN(c2ccccc2)CC1` next.
**Result** 413

---

Protocol description: Primary imaging screen for DUSP6 inhibitors that restore phospho-Erk in transfected HeLa cells, chemical complementation (AID 609)
Condition label: HeLa MKP-3 transfected, phospho-Erk imaging KS statistic; measured here: nuclear pErk red intensity z-score; at 10 µM; stronger effect = higher value; cells stimulated with TPA for 15 min
z-score below 0.4 gives Not fulfilled; z-score at or above it gives Fulfilled.

CCc1oc2ccccc2c1C(=O)c1cc(Br)c(O)c(Br)c1 = Fulfilled
COc1cccc(C(=O)NCC(=O)n2nc(C)cc2C)c1 = Not fulfilled
COc1ccc(CSc2nnc(C)n2N)cc1Br = Not fulfilled
CN(CCOC(=O)c1cccc(Br)c1)C(C)(C)C = Fulfilled
CC(C)c1nc2sc3c(c2c(=O)o1)CCCC3 = Fulfilled

**Query** Is z-score at least 0.4? Consider OC(CCN1CCCCC1)(c1ccccc1)C1CCCCC1 (stereo not given)
**Result** Not fulfilled

**Query** Try `CCCCc1oc2ccccc2c1C(=O)c1cc(I)c(OCCN(CC)CC)c(I)c1` next.
**Result** Fulfilled

---

molecules and their reported inhibition
Protocol description: loss of swimming-algae plug formation – whole organism, Chlamydomonas reinhardtii, WT vs cilia-less mutant, absorbance, 96-well, primary screen (AID 463189);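 also: 0% = wild type cc124 cells in DMSO and 100% = ciliumless bld1 mutant cells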
Condition label: Chlamydomonas reinhardtii gravitaxis, OD600 absorbance, 2 days; at 10 µM; stronger effect = higher value
Activity calls are given as the source filed them.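 Rule for the calls: active = inhibition at or above 50% relative to wild type and mutant plate controls; inactive = inhibition below 50%.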

NC(N)=NCc1cccc(I)c1 = 4.17% (inactive)
CC1=C(/C=C/C(C)=C/C=C/C(C)=C\C(=O)O)C(C)(C)CCC1 = -3.51% (inactive)
O=c1cc(-c2ccccc2)[nH]c2nc(Cl)ccc12 = 6.49% (inactive)
CC(N=C(NC#N)Nc1ccncc1)C(C)(C)C (configuration not stated) = -9.18% (inactive)
CN(C)CCOC(=O)COc1ccc(Cl)cc1 = 5.22% (inactive)

**Query** So what does the record say about inhibition for `NCCCS(=O)(=O)O` ?
**Result** -4.87% (inactive)

**Query** Try `CN(Cc1cnc2nc(N)nc(N)c2n1)c1ccc(C(=O)N[C@H](CCC(=O)O)C(=O)O)cc1` next.
**Result** -2.58% (inactive)

**Query** Try `COc1ccc[nH]c1=O` next.
**Result** 14.4% (inactive)

**Query** Try CC1CCc2cc(F)cc3c(=O)c(C(=O)O)cn1c23 (configuration not stated) next.
**Result** -5.13% (inactive)

**Query** Try CC1=C(C(=O)O)N2C(=O)[C@@H](NC(=O)C(N)c3ccccc3)[C@H]2SC1 (some centres not stated) next.
**Result** -0.964% (inactive)

**Query** Try `C[C@@H](NCCc1ccc(O)cc1)[C@@H](O)c1ccc(O)cc1` next.
**Result** 2.54% (inactive)

**Query** Try `O=S(=O)(NCCNC/C=C/c1ccc(Br)cc1)c1cccc2cnccc12` next.
**Result** 19.5% (inactive)

---

compounds and their reported slope
Measured on: Alpha-2C adrenergic receptor (Homo sapiens) (UniProt P18825)
Sequence (P18825 whole entry, looked up): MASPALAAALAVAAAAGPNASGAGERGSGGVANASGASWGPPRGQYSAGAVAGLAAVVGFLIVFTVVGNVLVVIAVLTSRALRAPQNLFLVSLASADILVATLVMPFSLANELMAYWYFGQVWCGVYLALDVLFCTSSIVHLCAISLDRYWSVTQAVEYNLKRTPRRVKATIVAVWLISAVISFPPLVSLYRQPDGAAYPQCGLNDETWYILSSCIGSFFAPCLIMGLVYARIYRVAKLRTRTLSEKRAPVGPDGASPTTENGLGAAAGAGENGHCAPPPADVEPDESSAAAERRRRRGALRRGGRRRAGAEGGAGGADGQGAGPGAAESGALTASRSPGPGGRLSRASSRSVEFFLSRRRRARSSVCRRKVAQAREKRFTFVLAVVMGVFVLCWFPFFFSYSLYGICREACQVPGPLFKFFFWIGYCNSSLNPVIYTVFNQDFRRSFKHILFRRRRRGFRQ
Protocol description: compounds altering alpha2C-coupled GIRK flux – cell-based, HEK293 alpha2C/GIRK1/2, thallium flux, primary screen (AID 624);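 also: slope of fluorescence ratio to pre-addition baseline per second over 15 to 24 s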
Condition label: thallium flux BTC fluorescence, at 10 µM, actives lie on both sides
Active and inactive are the calls of the source.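 Rule for the calls: active = fluorescence slope after compound addition differing from the mean of all screened samples at 99.7% confidence, in either direction; inactive = the rest.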

Example results:
CCOC(=O)C1CCCN(C(=O)c2cc3c(-c4cccc(OC)c4)nn(C)c3s2)C1 (stereo unspecified) = 0.00666 (inactive)
C[N+](C)(C)CCCCCCCCCC[N+](C)(C)C = 0.00465 (inactive)
Clc1ccc(Cn2c(CN3CCCC3)nc3ccccc32)cc1 = 0.00478 (inactive)
COc1cccc(-c2cc(C(=O)Nc3cc(OC)c(OC)c(OC)c3)no2)c1 = 0.00712 (inactive)
CC(C)[N+]1(C)[C@@H]2CC[C@H]1CC(OC(=O)C(CO)c1ccccc1)C2 (stereo partly specified) = 0.00449 (inactive)

Turning now to a further compound:
**Query** Please state recorded slope (tested on Alpha-2C adrenergic receptor (Homo sapiens) (UniProt P18825)) of `C1COC(NC(C2CC2)C2CC2)=N1`
**Result** 0.00489 (inactive)
